For each of the compounds below, state its growth inhibition.
# PROCEDURE_TEXT: NCI Yeast Anticancer Drug Screen. Data for the sgs1 strain (AID 173);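 also: 0% = growth of vehicle-only control cultures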
# MEASUREMENT_PARAMETERS: S. cerevisiae sgs1 mutant, at 100.0 µM, stronger effect = higher value
About 79,000 compounds went through this panel and 15% of them were active in at least one assay; those are over-represented in the sample as a whole.
Numbers only, in %.

N#CSC1CCCCNC1=O (stereo not given): 99

# batch size: 3; output growth inhibition per entry
1. COc1cc(N(C)C)ccc1/C=C\c1ccnc2ccccc12
2. Cc1ccc(S(=O)(=O)N(C)c2ccc(Cl)cc2C2=NCCc3ccccc32)cc1
3. CC(=O)OCC1OC(O[C@H]2C=C[C@@H](C(=O)OCc3ccccc3)n3c(=O)n(-c4ccccc4)c(=O)n32)C(OC(C)=O)C(OC(C)=O)C1OC(C)=O (stereo not given in full)

Reply text:
[45, 93, 77]

# batch size: 3; output growth inhibition per entry
1. Cc1ccc2occ/c(=N\Nc3ccccc3)c2c1
2. CC(=O)[O-].O=C([CH-]C(=O)c1ccccc1)c1ccccc1.O=C([CH-]C(=O)c1ccccc1)c1ccccc1.[Sm+3]
3. N#C/C(=C/c1c(Cl)cccc1Cl)C(N)=O

Reply text:
[57, 97, 98]
